TARGET_SYSTEM: AAK1 (Homo sapiens)
Construct: HA; expressed in transfected cells; host or cells: HEK293F
ASSAY_METHOD_TEXT: HEK281 cell-based assay (phospho-mu2 Western blot in transfected HEK293F cells)
TEST_CONDITIONS: 3 hours incubation, read-out: CBA IC50
EXPERIMENTAL_READOUT: IC50

Summary for this compound, CN(CCNc1ccc2ncc(-c3ccc(C#N)cc3)n2n1)C(=O)C(C)(C)C : IC50 is ≤ 100 nM

Summary for this compound, CCOC(=O)N(CCNc1ccc2ncc(-c3ccc(C(N)=O)cc3)n2n1)C(C)C : IC50 is ≤ 100 nM

Summary for this compound, NCc1ccc(-c2cnc3ccc(NCCc4ccccc4OC(F)(F)F)nn23)cc1 : IC50 is ≤ 10 nM

Summary for this compound, COc1cnccc1-c1cnc2ccc(NCCNC(=O)OC(C)C)nn12 : IC50 is ≤ 100 nM

Summary for this compound, COc1ccc(-c2cnc3ccc(NC[C@@H]4CCCN4C(=O)CC(C)C)nn23)cc1 : IC50 is ≤ 1000 nM

Summary for this compound, NC(=O)c1ccc(-c2cnc3ccc(NCCc4cccc(C(F)(F)F)c4)nn23)cc1 : IC50 is ≤ 100 nM

Summary for this compound, CN(CCNc1ccc2ncc(-c3ccncc3)n2n1)C(=O)OC(C)(C)C : IC50 is ≤ 100 nM

----------
TARGET_SYSTEM: AAK1 (Homo sapiens, UniProt Q2M2I8)
Construct: HA; expressed in transfected cells; host or cells: HEK293F
Sequence (Q2M2I8 1-863 isoform Q2M2I8-2): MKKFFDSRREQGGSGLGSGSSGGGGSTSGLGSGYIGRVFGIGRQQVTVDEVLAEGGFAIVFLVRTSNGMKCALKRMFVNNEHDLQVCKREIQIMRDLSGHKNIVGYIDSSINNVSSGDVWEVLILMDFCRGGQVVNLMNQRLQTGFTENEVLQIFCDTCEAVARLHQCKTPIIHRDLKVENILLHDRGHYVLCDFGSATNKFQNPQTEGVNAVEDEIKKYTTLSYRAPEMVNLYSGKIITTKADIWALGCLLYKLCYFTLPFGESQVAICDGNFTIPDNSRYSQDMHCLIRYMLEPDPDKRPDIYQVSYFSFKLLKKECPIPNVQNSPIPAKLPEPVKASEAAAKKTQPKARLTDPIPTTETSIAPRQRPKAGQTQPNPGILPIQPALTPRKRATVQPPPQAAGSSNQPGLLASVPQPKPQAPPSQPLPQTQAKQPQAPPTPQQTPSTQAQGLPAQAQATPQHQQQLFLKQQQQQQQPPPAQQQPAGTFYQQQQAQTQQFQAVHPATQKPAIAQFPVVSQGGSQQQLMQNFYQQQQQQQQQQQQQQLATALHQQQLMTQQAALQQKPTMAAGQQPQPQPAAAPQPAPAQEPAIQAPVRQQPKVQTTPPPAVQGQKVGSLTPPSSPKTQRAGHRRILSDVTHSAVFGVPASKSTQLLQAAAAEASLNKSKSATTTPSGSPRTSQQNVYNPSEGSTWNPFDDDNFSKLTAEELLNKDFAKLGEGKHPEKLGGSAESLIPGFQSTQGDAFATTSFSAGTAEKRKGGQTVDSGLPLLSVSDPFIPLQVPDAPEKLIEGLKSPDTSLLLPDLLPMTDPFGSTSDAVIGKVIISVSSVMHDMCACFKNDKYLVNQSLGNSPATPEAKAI
ASSAY_METHOD_TEXT: P81 filter plate assay
Type: biochemical
TEST_CONDITIONS: full-length human AAK1, Mu2 substrate
Provide the recorded IC50 for the entries that follow.

Summary for this molecule, CC(C)(C)NC(=O)N1CCC[C@H]1CNc1ccc2ncc(-c3ccncc3)n2n1 : IC50 is ≤ 0.01 µM

Summary for this molecule, Cc1cnc2ccc(NC[C@@H]3CCCN3C(=O)OC(C)(C)C)nn12 : IC50 is ≤ 0.01 µM

Summary for this molecule, Fc1ncccc1-c1cnc2ccc(NCCOC3CCCC3)nn12 : IC50 is ≤ 0.01 µM

Summary for this molecule, COc1ccc(OC)c(-c2cnc3ccc(N4CCN(C(=O)OC(C)C)CC4)nn23)c1 : IC50 is ≤ 0.01 µM

Summary for this molecule, CCOc1ccccc1-c1cnc2ccc(N3CCN(C(=O)OC(C)C)CC3)nn12 : IC50 is ≤ 0.01 µM

Summary for this molecule, CC(=O)c1cnc2ccc(N3CCN(C(=O)OC(C)C)CC3)nn12 : IC50 is ≤ 0.1 µM

Summary for this molecule, COc1ncccc1-c1cnc2ccc(NC[C@@H]3CCC(=O)N3CCC(C)(C)C)nn12 : IC50 is ≤ 0.01 µM

Summary for this molecule, COc1ncccc1-c1cnc2ccc(N3CCC(N(C)C(=O)OC(C)(C)C)C3)nn12 (stereo not shown) : IC50 is ≤ 0.01 µM

Summary for this molecule, CCCC(=O)N(C)[C@H]1CCN(c2ccc3ncc(-c4cccnc4OC)n3n2)C1 : IC50 is ≤ 0.1 µM

Summary for this molecule, COC(=O)c1cnn(-c2ccc3ncc(Br)n3n2)c1 : IC50 is ≤ 0.1 µM

----------
Provide the recorded pIC50 for the entries that follow.
TARGET_SYSTEM: AAK1 (Homo sapiens)
Construct: HA; expressed in transfected cells; host or cells: HEK293F
ASSAY_METHOD_TEXT: P81 filter plate assay
Assay type: biochemical
TEST_CONDITIONS: full-length human AAK1, Mu2 substrate
pIC50: −log10 of the molar value.

Summary for this compound, COc1cccc(-c2cnc3ccc(NCCOC4CCCC4)nn23)c1 : pIC50 is ≥ 7.00

Summary for this compound, N#Cc1ccc(-c2cnc3ccc(NCCOC4CCCC4)nn23)s1 : pIC50 is ≥ 8.00

Summary for this compound, CC(C)(C)OC(=O)N1CCC[C@H]1CNc1ccc2ncc(-c3ccc(CN)cc3)n2n1 : pIC50 is ≥ 8.00

Summary for this compound, O=C(OC1CCC1)N1CCC[C@H]1CNc1ccc2ncc(-c3ccncc3)n2n1 : pIC50 is ≥ 8.00

Summary for this compound, COc1cnccc1-c1cnc2ccc(NC3CCCCC3)nn12 : pIC50 is ≥ 8.00

Summary for this compound, Oc1cccc(-c2cnc3ccc(NCCOC4CCCC4)nn23)c1 : pIC50 is ≥ 8.00

Summary for this compound, CC(C)(C)OC(=O)N1CCN(c2ccc3ncc(-c4ccccc4)n3n2)CC1 : pIC50 is ≥ 8.00

Summary for this compound, c1csc(-c2cnc3ccc(NCCOC4CCCC4)nn23)c1 : pIC50 is ≥ 8.00

Summary for this compound, CC(=O)Nc1cccc(-c2cnc3ccc(NCCOC4CCCC4)nn23)c1 : pIC50 is ≥ 7.00

Summary for this compound, Cc1cnc2ccc(N3CCN(C(=O)[C@@H](N)CC(C)C)CC3)nn12 : pIC50 is ≥ 7.00

Summary for this compound, CN(C(=O)N1CCCC1)[C@H]1CCN(c2ccc3ncc(Br)n3n2)C1 : pIC50 is ≥ 7.00

Summary for this compound, CCOC(=O)N1CCN(c2ccc3ncc(-c4ccccc4)n3n2)CC1 : pIC50 is ≥ 8.00

Summary for this compound, COc1ccc(F)cc1-c1cnc2ccc(N3CC[C@H](N(C)C(=O)OC(C)C)C3)nn12 : pIC50 is ≥ 8.00

Summary for this compound, COc1ncc(F)cc1-c1cnc2ccc(N3CC[C@H](N(C)C(=O)OC(C)C)C3)nn12 : pIC50 is ≥ 8.00

----------
TARGET_SYSTEM: AAK1 (Homo sapiens, UniProt Q2M2I8)
Construct: HA; expressed in transfected cells; host or cells: HEK293F
ASSAY_METHOD_TEXT: HEK281 cell-based assay (phospho-mu2 Western blot in transfected HEK293F cells)
TEST_CONDITIONS: 3 hours incubation, read-out: CBA IC50
pIC50: −log10 of the molar value.
Provide the recorded pIC50 for the entries that follow.

Summary for this molecule, CCCCNc1ccc2ncc(-c3cc[nH]n3)n2n1 : pIC50 is ≥ 7.00

Summary for this molecule, CCN(CCNc1ccc2ncc(-c3ccc(C(=O)NC)cc3)n2n1)C(=O)OC(C)C : pIC50 is ≥ 7.00

Summary for this molecule, COc1ncccc1-c1cnc2ccc(N3CCN(C(=O)N4CCCCC4)CC3)nn12 : pIC50 is ≥ 7.00

Summary for this molecule, COc1ncccc1-c1cnc2ccc(NCCOC3CCCC3)nn12 : pIC50 is ≥ 7.00

Summary for this molecule, NCCNC(=O)c1ccc(-c2cnc3ccc(NCCCc4ccccc4)nn23)cc1 : pIC50 is ≥ 6.00

Summary for this molecule, COc1ncccc1-c1cnc2ccc(NC[C@@H]3CCCN3C(=O)OC(C)C)nn12 : pIC50 is ≥ 8.00

Summary for this molecule, CC(=O)c1ccc(-c2cnc3ccc(NCCCN(C)C(=O)OC(C)C)nn23)s1 : pIC50 is ≥ 7.00

Summary for this molecule, c1cc(-c2cnc3ccc(NCCOC4CCCC4)nn23)n[nH]1 : pIC50 is ≥ 6.00

Summary for this molecule, CNCCCNc1ccc2ncc(-c3ccc(C(C)=O)s3)n2n1 : pIC50 is ≥ 6.00

----------
Provide the recorded pIC50 for the entries that follow.
TARGET_SYSTEM: AAK1 (Homo sapiens, UniProt Q2M2I8)
Construct: HA; expressed in transfected cells; host or cells: HEK293F
ASSAY_METHOD_TEXT: HEK281 cell-based assay (phospho-mu2 Western blot in transfected HEK293F cells)
TEST_CONDITIONS: 3 hours incubation, read-out: CBA IC50
Description: HEK293F cells were cultured in media containing DMEM (Gibco, cat. #11965), 10% FBS (SAFC Biosciences, cat. #12103C), 1×GPS (glutamine, penicillin and streptomycin). On day one, cells were plated on a 10 cm dish so that they are ˜80% confluent at time of transfection. Roughly 12 million cells were in a 10 cm dish at time of transfection. On day two, each dish was transfected with 48 ug DNA and 144 ul Lipofectamine 2000 (Invitrogen, cat.#11668-019). […]
pIC50: −log10 of the molar value.

Reported pIC50 (AAK1 (Homo sapiens, UniProt Q2M2I8)) for entry CCCCNc1ccc2ncc(-c3ccc(C(=O)NCCN(CC)CC)cc3)n2n1 is ≥ 8.00

Reported pIC50 (AAK1 (Homo sapiens, UniProt Q2M2I8)) for entry CC(C)OC(=O)N1CCN(c2ccc3ncc(-c4cccc5c4OCC5)n3n2)CC1 is ≥ 7.00

Reported pIC50 (AAK1 (Homo sapiens, UniProt Q2M2I8)) for entry COCCCNc1ccc2ncc(-c3ccc(C(C)=O)s3)n2n1 is ≥ 6.00

Reported pIC50 (AAK1 (Homo sapiens, UniProt Q2M2I8)) for entry COc1ccccc1-c1cnc2ccc(NCCN(C)C(=O)OC(C)(C)C)nn12 is ≥ 7.00

Reported pIC50 (AAK1 (Homo sapiens, UniProt Q2M2I8)) for entry CNC(=O)c1ccc(-c2cnc3ccc(NCCN(C)C(=O)OC(C)C)nn23)cc1 is ≥ 7.00

Reported pIC50 (AAK1 (Homo sapiens, UniProt Q2M2I8)) for entry CCCCNc1ccc2ncc(-c3ccc(C(=O)NCC(C)N)cc3)n2n1 (stereo not drawn) is ≥ 6.00

Reported pIC50 (AAK1 (Homo sapiens, UniProt Q2M2I8)) for entry C=COC(=O)N1CCC[C@H]1CNc1ccc2ncc(-c3ccccc3OC)n2n1 is ≥ 7.00

Reported pIC50 (AAK1 (Homo sapiens, UniProt Q2M2I8)) for entry COc1ccccc1CCNc1ccc2ncc(-c3ccc(C(N)=O)cc3)n2n1 is ≥ 8.00

Reported pIC50 (AAK1 (Homo sapiens, UniProt Q2M2I8)) for entry CC(C)(C)CCNc1ccc2ncc(-c3ccc(OCCCN)cc3)n2n1 is ≥ 7.00

Reported pIC50 (AAK1 (Homo sapiens, UniProt Q2M2I8)) for entry c1ccc(CCCNc2ccc3ncc(-c4ccc(C5CCCN5)cc4)n3n2)cc1 (stereo not drawn) is ≥ 6.00

Reported pIC50 (AAK1 (Homo sapiens, UniProt Q2M2I8)) for entry CC(C)CC(=O)N1CCC[C@H]1CNc1ccc2ncc(-c3ccc(CN)cc3)n2n1 is ≥ 8.00

Reported pIC50 (AAK1 (Homo sapiens, UniProt Q2M2I8)) for entry COc1ccccc1-c1cnc2ccc(N3CC[C@H](N(C)C(=O)OC(C)(C)C)C3)nn12 is ≥ 7.00

Reported pIC50 (AAK1 (Homo sapiens, UniProt Q2M2I8)) for entry CCCCNc1nn2c(-c3ccc(CN)cc3)cnc2cc1C is ≥ 7.00

Reported pIC50 (AAK1 (Homo sapiens, UniProt Q2M2I8)) for entry CCCCNc1ccc2ncc(-c3ccc(C(N)=O)cc3)n2n1 is ≥ 7.00

Reported pIC50 (AAK1 (Homo sapiens, UniProt Q2M2I8)) for entry c1cc(C2CCCN2)ccc1-c1cnc2ccc(NCCOC3CCCC3)nn12 (stereo not drawn) is ≥ 7.00

Reported pIC50 (AAK1 (Homo sapiens, UniProt Q2M2I8)) for entry CC(C)OC(=O)N1CCN(c2ccc3ncc(-c4cccc(Cl)c4)n3n2)CC1 is ≥ 6.00

Reported pIC50 (AAK1 (Homo sapiens, UniProt Q2M2I8)) for entry COc1cccc(CCNc2ccc3ncc(-c4ccc(CN)cc4)n3n2)c1 is ≥ 7.00

Reported pIC50 (AAK1 (Homo sapiens, UniProt Q2M2I8)) for entry COc1ccccc1-c1cnc2ccc(NC[C@@H]3CCCN3C(=O)OC3CCC3)nn12 is ≥ 7.00

Reported pIC50 (AAK1 (Homo sapiens, UniProt Q2M2I8)) for entry CCCCNc1ccc2ncc(-c3ccc(C(N)=O)s3)n2n1 is ≥ 6.00

Reported pIC50 (AAK1 (Homo sapiens, UniProt Q2M2I8)) for entry CCCCNc1ccc2ncc(-c3ccc(CNC(=O)[C@@H](N)CC(C)C)cc3)n2n1 is ≥ 7.00

Reported pIC50 (AAK1 (Homo sapiens, UniProt Q2M2I8)) for entry CCCCNc1ccc2ncc(-c3ccc(CN)cc3)n2n1 is ≥ 6.00

Reported pIC50 (AAK1 (Homo sapiens, UniProt Q2M2I8)) for entry CC(=O)c1cnc2ccc(N3CCN(C(=O)[C@@H](N)C(C)C)CC3)nn12 is ≥ 7.00

Reported pIC50 (AAK1 (Homo sapiens, UniProt Q2M2I8)) for entry CC(C)OC(=O)N(CCNc1ccc2ncc(-c3ccccc3)n2n1)C(C)C is ≥ 7.00

Reported pIC50 (AAK1 (Homo sapiens, UniProt Q2M2I8)) for entry CC(C)(C)NC(=O)N1CCC[C@H]1CNc1ccc2ncc(Br)n2n1 is ≥ 7.00

Reported pIC50 (AAK1 (Homo sapiens, UniProt Q2M2I8)) for entry CNC(=O)c1cnc2ccc(N3CCN(C(=O)OC(C)C)CC3)nn12 is ≥ 7.00

Reported pIC50 (AAK1 (Homo sapiens, UniProt Q2M2I8)) for entry CC(C)(C)NC(=O)N1CCC[C@H]1CNc1ccc2ncc(-c3ccccc3)n2n1 is ≥ 7.00

Reported pIC50 (AAK1 (Homo sapiens, UniProt Q2M2I8)) for entry CC(=O)c1ccc(-c2cnc3ccc(NCC(C)C)nn23)s1 is ≥ 6.00

Reported pIC50 (AAK1 (Homo sapiens, UniProt Q2M2I8)) for entry CCCCNc1ccc2ncc(-c3ccc(-c4nnn[nH]4)cc3)n2n1 is ≥ 6.00

Reported pIC50 (AAK1 (Homo sapiens, UniProt Q2M2I8)) for entry COc1cccc(-c2cnc3ccc(NC[C@@H]4CCCN4C(=O)CC(C)C)nn23)c1 is ≥ 7.00

Reported pIC50 (AAK1 (Homo sapiens, UniProt Q2M2I8)) for entry CC(C)(C)N1CCN(CCNc2ccc3ncc(-c4ccc(CN)cc4)n3n2)C1=O is ≥ 7.00
